Taken from ChEMBL document CHEMBL1133620.

Assay: in vivo
Details: rat, iv, 2 mg/kg
readout: half-life
The answer consists of two parts: a number and, after it, its unit.

half-life in this record for Cc1nc(-c2nc(C(F)(F)F)cn2-c2ccc(S(N)(=O)=O)cc2)cs1 : 3.4 h

====

Organism: Rattus norvegicus
Experiment: animal or person
Assay type: functional
ED50: recorded values
The figure you give is taken to be in mg/kg; do not add the unit.

The cases that follow already have their ED50 on record.
Cc1nc(-c2nc(C(F)(F)F)cn2-c2ccc(S(N)(=O)=O)cc2)cs1	14
Cc1ncccc1-c1nc(C(F)(F)F)cn1-c1ccc(S(N)(=O)=O)cc1	18
Cc1cccc(-c2nc(C(F)(F)F)cn2-c2ccc(S(N)(=O)=O)cc2)n1	20.3
Cc1ccc(-c2nc(C(F)(F)F)cn2-c2ccc(S(C)(=O)=O)cc2)cn1	33
Cc1csc(-c2nc(C(F)(F)F)cn2-c2ccc(S(N)(=O)=O)cc2)n1	18.5

ED50 in this record for Cc1cncc(-c2nc(C(F)(F)F)cn2-c2ccc(S(N)(=O)=O)cc2)c1 : 32

ED50 in this record for CS(=O)(=O)c1ccc(-n2cc(C(F)(F)F)nc2-c2cccnc2)cc1 : 8.2

ED50 in this record for Cc1ccc(-c2nc(C(F)(F)F)cn2-c2ccc(S(C)(=O)=O)cc2)nc1 : 20
